# assayProcedure: cytotoxicity in IOSE-T80 ovarian epithelial cells, dose response, selectivity assay for PAX8 inhibitor project, cell-based, cherry-pick (AID 687032);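 also: cells exposed to compound for 96 h before reading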
# cond: CellTiterGlo ATP luminescence, 96 h; series mostly up to 35 µM
Measured potencies and affinities stand elsewhere. Records with an inconclusive call do not appear. Calls of active or inactive are those of the source.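 The calls were made as follows: active = fitted half-maximal concentration for viability loss no higher than twice the top valid dose, in every repeat run; inconclusive = repeat runs disagree, flat partial loss, or poor curve fit; inactive = the rest.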
readoutKind: outcome

O=C1CN(S(=O)(=O)Cc2ccccc2)C[C@@H]2[C@@H](c3ccc(C#Cc4ccc(F)cc4)cc3)[C@@H](CO)N12; inactive
C[C@@H]1CCCCO[C@@H](CN(C)Cc2ccc(Cl)c(Cl)c2)[C@H](C)CN([C@H](C)CO)C(=O)c2cc(NS(=O)(=O)c3ccccc3)ccc2O1; inactive
COc1ccccc1C#Cc1ccc2c(c1)O[C@H](CN(C)Cc1ccncc1)[C@@H](C)CN([C@@H](C)CO)S2(=O)=O; inactive
CC(C)N1CCc2c(sc(NC(=O)c3ccc([N+](=O)[O-])o3)c2C(N)=O)C1; inactive
